assayed-system: Histidine--tRNA ligase (Leishmania infantum) (UniProt A4I591)
Sequence (whole entry): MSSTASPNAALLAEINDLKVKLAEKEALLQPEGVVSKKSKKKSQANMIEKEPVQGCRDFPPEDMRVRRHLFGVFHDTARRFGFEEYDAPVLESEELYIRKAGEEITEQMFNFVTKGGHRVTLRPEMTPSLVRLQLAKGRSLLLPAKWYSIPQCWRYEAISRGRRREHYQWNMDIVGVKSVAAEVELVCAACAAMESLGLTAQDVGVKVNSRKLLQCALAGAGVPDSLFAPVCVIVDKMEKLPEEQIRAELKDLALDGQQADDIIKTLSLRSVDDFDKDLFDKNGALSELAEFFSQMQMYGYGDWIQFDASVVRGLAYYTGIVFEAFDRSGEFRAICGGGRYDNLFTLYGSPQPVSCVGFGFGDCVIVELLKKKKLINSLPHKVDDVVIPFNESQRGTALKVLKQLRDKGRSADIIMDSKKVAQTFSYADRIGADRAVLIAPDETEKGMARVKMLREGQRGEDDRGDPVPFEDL
assay-comment: Leishmania infantum Histidine tRNA synthetase (LdHisRS)
Type: functional
Parameters: scale not given: in the data most compounds retested in dose-response had high values
protocol-conditions: 30 µM
In all, about 69,000 compounds went through this assay and about 420 (0.61%) showed an effect of 50% or more. Shown is part of a subset that was picked to be rich in strong results.
So I've got a bunch of compounds here, and I need their Percent Effect values.
Quick reminder: number only, in %, skip the unit.

Form: compound = Cn1cc(C(=O)N2CC[C@@H]3[C@@H]2CCN3c2ncc(F)cn2)cn1 ; Percent Effect = 14.3

response.value for Cc1n[nH]c(C)c1-c1cc(-c2ccc[nH]2)nc(N)c1C#N (field: Percent Effect) = 27.5

Percent Effect recorded for this compound, Cn1cc(-c2c(C#N)c(N)nc3c2CCc2[nH]ccc2-3)cn1 , is 97.4

What the record says about Cc1nc(-c2cc(Cl)c3c(c2)CC(CN)O3)c[nH]1 (stereo unspecified) : Percent Effect is 40.5

Percent Effect reported for this compound Cc1cc(-c2c(C)c(-c3cnn(C)c3)nc(N)c2C#N)oc1C : 22.4

Per the record, Cc1nc2c(c(=O)[nH]1)CN(C(=O)CC[C@@H]1CCCN3CCCC[C@H]13)C2 has Percent Effect of 3.54

Percent Effect reported for this compound NCC1Cc2cc(-c3nccc(N4CCC(O)CC4)n3)cc(F)c2O1 (stereo unspecified) : 51.4

Percent Effect reading for NCC1Cc2cccc(-c3nccc(N4CCC(O)CC4)n3)c2O1 (stereo unspecified) : 34.3

# Percent Effect (compound: COCCC(=O)N1C[C@@H]2COC[C@]2(COCc2cccnc2)C1 ) is 10.7

Query CN(C)c1nccc(N2CCO[C@H]3CN(Cc4nccn4C)C[C@H]32)n1 yields Percent Effect of 3.19

Percent Effect for NCC1Cc2cc(-c3cnccn3)cc(Cl)c2O1 (stereo unspecified) is 11
